Catalogue of growth readings, one per entry.
Tested on: HT29 colon
TEST_DETAILS: NCI-60 one-dose screen, 48 h (100 = growth as untreated, 0 = no growth, -100 = all killed)
CONDITION_LABEL: 10 µM unless noted
This is part of a sample that, as a whole, favours compounds with a hit. Of some 83,000 tested, about 20% had one in any assay.
PROPERTY_NAME: growth (%)

INSERT INTO results (compound, property_name, unit_tag, test_result) VALUES
  ('C/C(=C(\c1ccc(OCCN2CCCCCC2)cc1)c1ccc(OC(=O)c2ccccc2)cc1)c1ccc(Cl)cc1', 'growth', '%', 1.67),
  ('CCCCC#Cc1c(I)n(C2OC(CO[Si](C)(C)C(C)(C)C)C3OC(C)(C)OC32)c(=O)n(C(=O)c2ccccc2)c1=O (centres undefined)', 'growth', '%', 0.292),
  ('COC(=O)/C=C1/SC(=NCc2ccccc2)N(CCc2c[nH]c3ccccc23)C1=O', 'growth', '%', 68.1),
  ('[N-]=[N+]=NCC1OC(n2cnc3c(NC(=O)Nc4ccccc4)ncnc32)C2OC(=O)CC12 (centres undefined)', 'growth', '%', 109),
  ('N=C(N)c1ccc(-c2ccc(-c3cc(Cl)cc(Cl)c3)s2)s1', 'growth', '%', -80.1),
  ('CC(C)C1C2=C(NCCN1C(=O)c1ccncc1)C(C)(C)N(Cc1ccccc1)C2=O (centres undefined)', 'growth', '%', 92.8),
  ('C(=C(\C1=NCCN1)n1ccc2ccccc21)/c1ccccc1', 'growth', '%', 103),
  ('N#Cc1c(-c2ccc(Cl)cc2)nc(NN=Cc2ccc[nH]2)nc1N1CCOCC1', 'growth', '%', 66.2),
  ('CC1SC(c2ccccc2O)N(NC(=O)CCC(=O)c2nc3ncccc3[nH]2)C1=O (centres undefined)', 'growth', '%', 105);

###

System: A498 renal
TEST_DETAILS: NCI-60 one-dose screen, 48 h (100 = growth as untreated, 0 = no growth, -100 = all killed)
CONDITION_LABEL: 10 µM unless noted
Method: Growth inhibition of the A498 human tumor cell line is measured as a screen for anti-cancer activity. Cells are grown in 96 well plates and exposed to the test compound for 48 hours. Compounds are tested at a single concentration, which is 10^-5 M for most compounds. The reported endpoint is percent growth (GI% or GIPRCNT), where numbers from 0 - 100% represent growth inhibition, and numbers from -100% - 0 represent cell death. For example, a value of 40 represents 60% growth inhibition. […]
The panel holds about 83,000 compounds, 20% with a hit somewhere; the sample as a whole holds those more often. The source made the active and inactive calls. Rule for the calls: active = growth percent below 10; inactive = the rest.
PROPERTY_NAME: growth

INSERT INTO assay_data (compound, test_result) VALUES
  ('C=C[C@@]1(C)CC(=O)[C@@H](C(C)(C)c2cn(C)c3ccc(Br)cc23)C[C@@H]1O[Si](C)(C)C(C)(C)C', '106% (inactive)'),
  ('C=C(c1ccc(C(=O)O)c(F)c1)c1cc2c(cc1C)C(C)(C)CCC2(C)C', '95.8% (inactive)'),
  ('COc1ccc(C2CC(n3ccnc3)c3cc(OC)c(OC)c(OC)c32)cc1O (stereo not drawn)', '88.3% (inactive)'),
  ('COc1ccc(-c2cc(C(=O)N3N=C(c4ccc(N)cc4)CC3c3ccc(Cl)cc3)c3cc(OC)ccc3n2)cc1 (stereo not drawn)', '87.8% (inactive)'),
  ('CCN(CC)C(=O)CC1=C(C)/C(=C/c2[nH]c(-c3ccc[nH]3)cc2OC)N=C1C', '-8.32% (active)'),
  ('O=C1C=CC2(O)OC/C(=C\c3ccccc3)C(O)=C2C1=O (stereo not drawn)', '108% (inactive)'),
  ('CCOC(=O)/C=C1\S/C(=N\Nc2cc(=O)[nH]c3ccc(Br)cc23)N(c2ccccc2)C1=O', '95.6% (inactive)'),
  ('O=C1CCC(C(=O)N/N=C/c2cc(F)ccc2F)N1 (stereo not drawn)', '106% (inactive)'),
  ('COc1cc(C=Nc2oc(-c3ccccc3)c(-c3ccccc3)c2C#N)cc(CN2CCCC2)c1O', '64.4% (inactive)'),
  ('COc1ccc(C(c2cc(OC)c(OC)c(OC)c2)N2CCCCC2)cc1 (stereo not drawn)', '7.32% (active)'),
  ('C=CCN=c1sc(-c2ccc3ccccc3c2)cn1NC(=O)c1cc2ccc1CCc1ccc(cc1)CC2', '62.7% (inactive)'),
  ('O=[N+]([O-])c1ccccc1Nc1ccc2ccccc2c1', '59.9% (inactive)'),
  ('COc1cc(/C=C/C(=O)c2cccc(-n3cc(-c4ccc(Cl)cc4)[nH]c3=O)c2)ccc1O', '106% (inactive)'),
  ('C=C1C(=O)O[C@@H]2C3C(=C(C)CC[C@@H]12)CC1O[C@]13C (stereo partly drawn)', '103% [6.75 µM] (inactive)'),
  ('Clc1ccc(-c2nc(C(Cl)Cl)nc3cc(-c4ccccc4)nn23)cc1', '-15.8% (active)'),
  ('CCOC(=O)c1cn2ncnc(Oc3ccc(NC(=O)NC4CC4)c(Cl)c3)c2c1C', '-0.592% (active)'),
  ('CC(C)Cc1nc(Nc2ccccc2)[nH]c(=O)c1C#N', '19.4% (inactive)'),
  ('CCOc1ccc(NC(=O)Nc2ccc(OCC)cc2)cc1', '104% (inactive)'),
  ('Cc1c(C(C)(C)O)cn2ncnc(Oc3ccc(NC(=O)Nc4ccc(Cl)c(C(F)(F)F)c4)c(F)c3)c12', '29.5% (inactive)'),
  ('CCOC(=O)c1[nH]cc2c1CCc1sc(Nc3ccccn3)nc1-2', '62.2% (inactive)'),
  ('O=C(NCc1ccc(Cn2c(=O)sn(-c3ccccc3)c2=O)cc1)OCc1ccc2cccc(O)c2n1', '39.3% (inactive)'),
  ('Cc1oc(-c2ccc(Cl)cc2)nc1C1=NN(C(=O)c2ccncc2)C(c2ccccc2)C1 (stereo not drawn)', '78% (inactive)'),
  ('CNC(=O)c1cc(Oc2ccc3c(c2)sc2nc(-c4ccc(NC(=O)[C@@H](NC(=O)OC)C(C)C)cc4)cn23)ccn1', '68.5% (inactive)'),
  ('CCOC(=O)C1=C(c2ccccc2)N=C2N(c3ccccc3)N=C(C(C)=O)N2C1c1ccc(F)cc1 (stereo not drawn)', '70.4% (inactive)'),
  ('Cc1ccc(-c2nc(SCC(=O)N3CCN(c4cc5c(cc4F)c(=O)c(C(=O)O)cn5C4CC4)CC3)nc(Cl)c2C#N)cc1', '103% (inactive)'),
  ('COCCn1cc(-c2csc(-c3c[nH]c4ccc(F)cc34)n2)c2cccnc21', '9.07% (active)'),
  ('COC(=O)c1ccc2c(c1)c1c(C)c3cnccc3c(C)c1n2C', '-84.3% (active)'),
  ('CCOC(=O)NC(=S)n1oc(=O)c2ccccc21', '103% (inactive)'),
  ('Cc1[nH]c(C(=O)Nc2ccccc2OC2CCN(CCN3CCOCC3)CC2)c(Cl)c1Cl', '71.6% (inactive)'),
  ('O=C1Nc2ccccc2/C1=N/N1C(=O)CN(CCCl)C1=O', '95.6% (inactive)'),
  ('Cn1c(=O)c2[nH]c(SC/C(=N/O)c3ccc(Br)cc3)nc2n(C)c1=O', '-80% (active)'),
  ('COC(=O)[C@]1(C)CCC[C@]2(C)[C@H]3C[C@@H]4[C@H]5[C@@H]6CC/C(=N\OCC/C(N)=N/O)[C@H]5[C@@]3(CC[C@H]21)CC4(C(C)C)O6', '82.4% (inactive)'),
  ('C=C(C)[C@@H]1CC[C@]2(C)[C@H](C=CC3=C4C[C@@](C)(CO)CC[C@]4(C)CC[C@]32C)[C@@]1(C)CCCN', '68.3% (inactive)'),
  ('CC1SC(c2ccccc2O)N(NC(=O)CCC(=O)c2nc3ncccc3[nH]2)C1=O (stereo not drawn)', '90.6% (inactive)'),
  ('CCCCCCCCn1ccc2cc(NC(=O)CN3CCN(c4cc(C)nc(Cl)n4)CC3)ccc21', '97.5% (inactive)'),
  ('c1ccc(-c2ccc3c(c2)C2(CCNCC2)CN3)cc1', '104% (inactive)'),
  ('Cc1cc(Cl)nc(N2CCN(CCNc3ccnc4cc(Cl)ccc34)CC2)n1', '42.4% (inactive)'),
  ('Cc1ccc(S(=O)(=O)c2nc(-c3ccccc3)oc2SCC(N)=O)cc1', '80.3% (inactive)');
